Origin of measurements: paper PMC10663500

Target: T1, mouse programmed cell death protein 1 Fc fusion protein (mPD-1-Fc), mPD-1 C60S (aa 25-167) (Mus musculus, UniProt Q02242, stabilised)
T1 construct: not cleaved; source: Expi293F, purified (Protein A, SEC; dimeric fraction); not shown: Fc (human), C-terminal, kept
Test: SPR; Carterra LSA; Fab from the ammonium sulfate precipitate of the culture supernatant immobilised on a NiHC200M chip; hPD-1 (1-1024 nM) or mPD-1-Fc (4-1024 nM) as analyte, fourfold dilution series, no regeneration; HBS-EP pH 7.4, 25 °C; medians over the spots of a construct, KD = koff/kon
Conditions: one partner purified
Threshold 0.006 s⁻¹. koff below it: 1.0. koff at it or above: 0.0.

Task: Regarding toripalimab Fab L.P100Y (Fab, V domains shown, as the heavy chain of Sm3; light chain of Sm3 with this change; numbers count from the chain's first residue; source: Brevibacillus, culture supernatant (ammonium sulfate precipitate); not shown: 6xHis, C-terminal, kept; 6xHN, C-terminal, kept) VH: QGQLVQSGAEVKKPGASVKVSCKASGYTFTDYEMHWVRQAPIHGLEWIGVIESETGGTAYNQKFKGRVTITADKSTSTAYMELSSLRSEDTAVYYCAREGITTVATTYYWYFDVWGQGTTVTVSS VL: DVVMTQSPLSLPVTLGQPASISCRSSQSIVHSNGNTYLEWYLQKPGQSPQLLIYKVSNRFSGVPDRFSGSGSGTDFTLKISRVEAEDVGVYYCFQGSHVYLTFGQGTKLEIK , kindly confirm whether its koff is beneath 0.006 s⁻¹.
Output: 1.0

Task: Regarding toripalimab Fab H.E54Y (Fab, V domains shown, heavy chain of Sm3 with this change; numbers count from the chain's first residue; as the light chain of Sm3; source: Brevibacillus, culture supernatant (ammonium sulfate precipitate); not shown: 6xHis, C-terminal, kept; 6xHN, C-terminal, kept) VH: QGQLVQSGAEVKKPGASVKVSCKASGYTFTDYEMHWVRQAPIHGLEWIGVIESYTGGTAYNQKFKGRVTITADKSTSTAYMELSSLRSEDTAVYYCAREGITTVATTYYWYFDVWGQGTTVTVSS VL: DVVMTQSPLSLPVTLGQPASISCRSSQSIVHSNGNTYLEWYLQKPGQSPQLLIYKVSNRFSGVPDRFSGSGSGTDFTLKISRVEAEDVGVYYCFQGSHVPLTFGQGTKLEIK , kindly confirm whether its koff is beneath 0.006 s⁻¹.
Output: 1.0

Task: Regarding toripalimab Fab L.G34A (Fab, V domains shown, as the heavy chain of Sm3; light chain of Sm3 with this change; numbers count from the chain's first residue; source: Brevibacillus, culture supernatant (ammonium sulfate precipitate); not shown: 6xHis, C-terminal, kept; 6xHN, C-terminal, kept) VH: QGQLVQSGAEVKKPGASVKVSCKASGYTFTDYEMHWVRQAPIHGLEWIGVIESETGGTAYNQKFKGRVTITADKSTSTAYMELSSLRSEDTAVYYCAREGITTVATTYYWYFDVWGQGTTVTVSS VL: DVVMTQSPLSLPVTLGQPASISCRSSQSIVHSNANTYLEWYLQKPGQSPQLLIYKVSNRFSGVPDRFSGSGSGTDFTLKISRVEAEDVGVYYCFQGSHVPLTFGQGTKLEIK , kindly confirm whether its koff is beneath 0.006 s⁻¹.
Output: 0.0

Task: Regarding toripalimab Fab L.T36A (Fab, V domains shown, as the heavy chain of Sm3; light chain of Sm3 with this change; numbers count from the chain's first residue; source: Brevibacillus, culture supernatant (ammonium sulfate precipitate); not shown: 6xHis, C-terminal, kept; 6xHN, C-terminal, kept) VH: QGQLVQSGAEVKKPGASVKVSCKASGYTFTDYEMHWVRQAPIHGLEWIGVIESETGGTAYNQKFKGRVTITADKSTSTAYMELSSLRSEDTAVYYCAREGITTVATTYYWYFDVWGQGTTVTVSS VL: DVVMTQSPLSLPVTLGQPASISCRSSQSIVHSNGNAYLEWYLQKPGQSPQLLIYKVSNRFSGVPDRFSGSGSGTDFTLKISRVEAEDVGVYYCFQGSHVPLTFGQGTKLEIK , kindly confirm whether its koff is beneath 0.006 s⁻¹.
Output: 0.0
